# Tested on: Candida albicans
# details: 32 ug/mL
# Description: Antifungal activity against Candida albicans ATCC 90028 (CO-ADD:FG_001); MIC in YNB media using NBS plates, by OD630
Potency and affinity values are given separately.
Measured Inhibition accompanies every entry in the list below.
measurement label: Inhibition

mol smiles	test system	value observed
C#CCNc1nc(NC2CCN(Cc3ccccc3)CC2)c(C#N)cc1C#N.Cl	Candida albicans	1.54%
CC#CCN.Cl	Candida albicans	3.96%
CCOC(=O)c1cc2ccccc2[nH]1	Candida albicans	2.42%
C#CCN(C)c1cc(C)nc(C)n1	Candida albicans	5.55%

---

Measured Inhibition accompanies every entry in the list below.
# System: Klebsiella pneumoniae
# details: Concentration 32 ug.mL-1; ASSAY_TEST Inhibition of Bacterial Growth; detection method Absorption (OD600); MEDIA CAMHB; plate type 384well; NBS; CORNING #3640; time 18 hr
# Description: Antibacterial activity against Klebsiella pneumoniae MDR ATCC 70063 (CO-ADD:GN_003); MIC in CAMBH media using NBS plates, by OD(600)
Results with a measured potency or affinity are listed apart.

compound	test system	readout units	Inhibition
COc1ccccc1-c1c(C#N)c(=O)oc2c1ccc1ccccc12	Klebsiella pneumoniae	%	11.02
Nc1nc(N)c(C=O)c(-c2ccccc2)c1C=O	Klebsiella pneumoniae	%	-1.67
COc1cc(C2c3c(nc4c(c3N)CCCC4)Oc3ccc4ccccc4c32)cc(OC)c1OC (stereo not given)	Klebsiella pneumoniae	%	23.56
C#CCNc1nc(N)c(C#N)cc1C#N	Klebsiella pneumoniae	%	1.8
COC1=C(C#N)C(c2ccccc2)C(C=O)=C(Cl)N1 (stereo not given)	Klebsiella pneumoniae	%	16.25
C#CCN(Cc1ccccc1)c1nc(N)c(C#N)c(-c2ccccc2)c1C#N	Klebsiella pneumoniae	%	-5.74
CN(C)c1nc(N)c(C#N)c(-c2ccccc2)c1C#N	Klebsiella pneumoniae	%	-2.21
CN(C)c1ccc(C(=NNC(=O)c2cc3ccccc3[nH]2)c2ccc(N(C)C)cc2)cc1	Klebsiella pneumoniae	%	-1.36
Nc1c2c(nc3nc4ccccc4nc13)CCCC2	Klebsiella pneumoniae	%	-2.37
N#CC1(Br)C(=NBr)Oc2c(ccc3ccccc23)C1c1cccc([N+](=O)[O-])c1 (stereo not given)	Klebsiella pneumoniae	%	24.92
CC(=O)O[C@H]1CC[C@H](NC(=O)c2ccccc2)CC1	Klebsiella pneumoniae	%	10.24
O=C(O)n1ccc2ccccc21	Klebsiella pneumoniae	%	4.22
CCOC(=O)C1=C(C)OC(N)=C(C#N)C1c1ccncc1 (stereo not given)	Klebsiella pneumoniae	%	10.54
O=C(NNCc1ccco1)c1cc2ccccc2[nH]1	Klebsiella pneumoniae	%	1.78
CC1Cc2c(Br)nc3nc4c(c(N)c3c2NC1=O)CCCC4 (stereo not given)	Klebsiella pneumoniae	%	20.62
Cc1nc(Nc2ccccc2)c2c(C)nn(-c3ccccc3)c2n1	Klebsiella pneumoniae	%	-3.39
CN(C)c1cccc(C(=O)c2cccc(N(C)C)c2)c1	Klebsiella pneumoniae	%	6.77
CC(C)(C)OC(=O)Nc1ccccn1	Klebsiella pneumoniae	%	24.53
Nc1c2c(nc3c1C(c1ccc(O)cc1)c1c(ccc4ccccc14)O3)CCCC2 (stereo not given)	Klebsiella pneumoniae	%	8.92
COc1cccc(C2c3ccc4ccccc4c3OC(=NBr)C2(Br)C#N)c1 (stereo not given)	Klebsiella pneumoniae	%	5.65

---

# Test system: Candida albicans
# details: 32 ug/mL
Entries with a potency or affinity are not part of this list.

compound	Inhibition [%]
Nc1c2c(nc3c1CC(c1c(Cl)cccc1Cl)C(=O)N3)CCCC2 (stereo not given)	-0.19
Cl.ClCCCN1CCCC1	8.26
O=C1NC(=O)C(=Cc2ccccc2)N1	-0.05
COc1nc2ccc(C)cc2cc1C=O	5.7
N#Cc1ccc(Br)cc1N	18

The measured values listed here are drawn from ChEMBL document CHEMBL4513135.
